Biological target: Aldo-keto reductase family 1 member B1 (Rattus norvegicus); also: in other assays of this panel Not Active means under 50% inhibition at 10 µM;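 also: inhibition of aldose reductase enzyme activity, measured with DL-glyceraldehyde as the substrate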
Experiment: biochemical
Format: tissue-based, Lens of camera-type eye
Where a SMILES comes first, the peptide text is derived from it. Bridges are numbered along the chain shown (N, C = ends). [ ]: non-standard residue; d: D form. The star is where a group is joined. Threoninol(2S,3R) = C[C@@H](O)[C@H](CO)N*
READOUT KIND: IC50

// below: answered compounds
>>> recorded_value("CO[C@H]1/C=C/O[C@@]2(C)Oc3c(C)c(O)c4c(c3C2=O)C2=NC3(CCN(CC(C)C)CC3)NC2=C(NC(=O)/C(C)=C\\C=C\\[C@H](C)[C@H](O)[C@@H](C)[C@@H](O)[C@@H](C)[C@H](OC(C)=O)[C@@H]1C)C4=O [RIFABUTIN]")
"Not Active"
>>> recorded_value("C=CCN1CC[C@]23c4c5ccc(O)c4O[C@H]2C(=O)CC[C@@]3(O)[C@H]1C5 [NALOXONE]")
"Not Active"
>>> recorded_value("C[C@@H](O)[C@H](CO)NC(=O)[C@@H]1CSSC[C@H](NC(=O)[C@H](N)Cc2ccccc2)C(=O)N[C@@H](Cc2ccccc2)C(=O)N[C@H](Cc2c[nH]c3ccccc23)C(=O)N[C@@H](CCCCN)C(=O)N[C@@H]([C@@H](C)O)C(=O)N1 (H-[dF]CF[dW]KTC-{Threoninol(2S,3R)}; disulfide 2-7)")
"Not Active"
>>> recorded_value("COc1ccc2[nH]c([S+]([O-])Cc3ncc(C)c(OC)c3C)nc2c1 (configuration not stated) [OMEPRAZOLE]")
"Not Active"
>>> recorded_value("Cc1cc2cc3c(C)cc(=O)oc3c(C)c2o1 [TRIOXSALEN]")
"Not Active"

Hi there! I need IC50 for each item below, if you can.
1. CC1(C)O[C@@H]2C[C@H]3[C@@H]4C[C@H](F)C5=CC(=O)C=C[C@]5(C)[C@@]4(F)[C@@H](O)C[C@]3(C)[C@]2(C(=O)CO)O1 [FLUOCINOLONE ACETONIDE]
2. COCCCOc1ccnc(C[S+]([O-])c2nc3ccccc3[nH]2)c1C (configuration not stated) [RABEPRAZOLE]
3. CC(C)(C)c1ccc(C(O)CCCN2CCC(C(O)(c3ccccc3)c3ccccc3)CC2)cc1 (configuration not stated) [TERFENADINE]
4. CCN[C@@H]1C[C@H](N)[C@@H](O[C@H]2OC(CN)=CC[C@H]2N)[C@H](O)[C@H]1O[C@H]1OC[C@](C)(O)[C@H](NC)[C@H]1O [NETILMICIN]
5. CC(=O)N[C@@H]1[C@H](Oc2c3cc4cc2Oc2ccc(cc2Cl)[C@@H](O[C@@H]2O[C@@H](CO)[C@@H](O)[C@H](O)[C@@H]2NC(C)=O)[C@@H]2NC(=O)[C@H](NC(=O)[C@@H]4NC(=O)[C@H]4NC(=O)[C@@H](Cc5ccc(c(Cl)c5)O3)NC(=O)[C@H](N)c3ccc(O)c(c3)Oc3cc(O)cc4c3)c3ccc(O)c(c3)-c3c(O[C@H]4O[C@H](CO)[C@@H](O)[C@@H](O)[C@@H]4O)cc(O)cc3[C@@H](C(=O)O)NC2=O)O[C@@H](CO)[C@@H](O)[C@@H]1O

1. Not Active
2. Not Active
3. Not Active
4. Not Active
5. Not Active

I have 2 compounds here; please give me IC50 for each one.
1. CC(C(=O)O)c1cccc(C(=O)c2ccccc2)c1 (configuration not stated) [KETOPROFEN]
2. CC(C)(C(=O)c1cccnc1)c1cccnc1 [METYRAPONE]

["Not Active", "Not Active"]
